Origin of measurements: paper PMC9414913

- assayedSystem: UniProt C7FF04
metric: IC50 (µM)
Quick note: give the figure in µM, leave out the unit.

[in] Test system UniProt C7FF04; read-out IC50; what value for O=C1C[C@@H](c2ccc(O)cc2)Oc2cc(O)ccc21 [Compound 15, (2S)-liquiritigenin] ?
[out] 109
